biological target: GPR35 (Homo sapiens (Human)); experiment: Label-free DMR functional assay in HT-29 cells; assay type: cell-based; settings: HT-29 cell line endogenously expressing human GPR35; DMR normalised to Lodoxamide
Sequence (Q9HC97 whole entry): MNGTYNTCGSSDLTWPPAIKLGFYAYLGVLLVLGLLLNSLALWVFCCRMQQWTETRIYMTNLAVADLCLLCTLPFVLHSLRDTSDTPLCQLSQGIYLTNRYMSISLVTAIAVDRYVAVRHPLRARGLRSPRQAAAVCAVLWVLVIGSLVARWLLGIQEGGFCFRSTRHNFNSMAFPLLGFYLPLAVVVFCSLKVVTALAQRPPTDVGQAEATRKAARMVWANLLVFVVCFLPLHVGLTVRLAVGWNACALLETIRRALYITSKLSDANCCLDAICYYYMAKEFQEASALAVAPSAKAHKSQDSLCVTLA
measurement_type: EC50 (nM)
The figure you give is taken to be in nM; do not add the unit.

So what does the record say about EC50 for "CCc1cc(Nc2c(O)c(=O)c2=O)cc(-c2nn[nH]n2)c1" ?
2.34

So what does the record say about EC50 for "NC(=O)c1ccc(CNC(=O)c2ccc(-c3cc(Nc4c(O)c(=O)c4=O)cc(-c4nn[nH]n4)c3)cc2)cc1" ?
11.3

So what does the record say about EC50 for "COc1cc(-c2nn[nH]n2)cc(Nc2c(O)c(=O)c2=O)n1" ?
9.25

So what does the record say about EC50 for "O=c1c(O)c(Nc2cc(-c3nn[nH]n3)cc(C3CC3)c2)c1=O" ?
8.19

So what does the record say about EC50 for "O=c1c(O)c(Nc2cc(-c3nn[nH]n3)cc(C(F)(F)F)c2)c1=O" ?
0.9

So what does the record say about EC50 for "O=c1c(O)c(Nc2cc(-c3ccc(OCCOc4ccc(C(F)(F)F)cc4)nc3)cc(-c3nn[nH]n3)c2)c1=O" ?
0.54

So what does the record say about EC50 for "CN(C)C(=O)c1ccc(-c2cc(Nc3c(O)c(=O)c3=O)cc(-c3nn[nH]n3)c2)cc1" ?
2.64

So what does the record say about EC50 for "O=c1c(O)c(Nc2cc(-c3ccnnc3)cc(-c3nn[nH]n3)c2)c1=O" ?
1.05

====

target: Human GPR35a isoform (Homo sapiens (Human), UniProt Q9HC97); test: Human GPR35a isoform binding (radioligand, HEK293f membranes); conditions: HEKf cell membranes overexpressing GPR35a isoform; read-out: Human GPR35 Ki
Sequence (Q9HC97 whole entry, canonical isoform): as the sequence (Q9HC97 whole entry) above
measurement_type: pKi
In plain terms, pKi is the concentration in mol/L turned into minus its base-10 logarithm.

So what does the record say about pKi for "O=c1c(O)c(Nc2cc(-c3ccc(OCCOc4ccc(C(F)(F)F)cc4)nc3)cc(-c3nn[nH]n3)c2)c1=O" ?
9.12

So what does the record say about pKi for "O=C(O)c1cccc(-c2cc(Nc3c(O)c(=O)c3=O)cc(-c3nn[nH]n3)c2)c1" ?
8.20

So what does the record say about pKi for "O=C(NCc1ccc(C(F)(F)F)cc1)c1ccc(-c2cc(Nc3c(O)c(=O)c3=O)cc(-c3nn[nH]n3)c2)cc1" ?
9.51

So what does the record say about pKi for "O=c1c(O)c(Nc2cc(-c3nn[nH]n3)cc(C(F)(F)F)c2)c1=O" ?
9.32

So what does the record say about pKi for "O=c1c(O)c(Nc2ccc(Cl)c(-c3nn[nH]n3)c2)c1=O" ?
9.22

So what does the record say about pKi for "O=c1c(O)c(Nc2cc(-c3ccc(OCc4ccc(C(F)(F)F)cc4)nc3)cc(-c3nn[nH]n3)c2)c1=O" ?
8.97

So what does the record say about pKi for "O=c1c(O)c(Nc2cc(-c3ccc4nn(Cc5ccc(C(F)(F)F)cc5)cc4c3)cc(-c3nn[nH]n3)c2)c1=O" ?
9.44

So what does the record say about pKi for "CCOC(=O)c1cccc(-c2cc(Nc3c(O)c(=O)c3=O)cc(-c3nn[nH]n3)c2)c1" ?
8.42

So what does the record say about pKi for "O=c1c(O)c(Nc2cc(-c3ccc(C(F)(F)F)cc3)cc(-c3nn[nH]n3)c2)c1=O" ?
9.80

So what does the record say about pKi for "O=c1c(O)c(Nc2cc(-c3nn[nH]n3)cc(C3CC3)c2)c1=O" ?
7.82

So what does the record say about pKi for "O=c1c(O)c(Nc2cc(-c3nn[nH]n3)cc(-c3ccccc3)n2)c1=O" ?
8.58

So what does the record say about pKi for "O=c1c(O)c(Nc2cc(-c3ccc(OCCOc4cc(C(F)(F)F)cc(C(F)(F)F)c4)nc3)cc(-c3nn[nH]n3)c2)c1=O" ?
9.44

So what does the record say about pKi for "O=C(NCc1ccccc1)c1ccc(-c2cc(Nc3c(O)c(=O)c3=O)cc(-c3nn[nH]n3)c2)cc1" ?
10.10

So what does the record say about pKi for "COc1cc(-c2nn[nH]n2)cc(Nc2c(O)c(=O)c2=O)n1" ?
8.11

So what does the record say about pKi for "CN(C)C(=O)c1ccc(-c2cc(Nc3c(O)c(=O)c3=O)cc(-c3nn[nH]n3)c2)cc1" ?
8.22

So what does the record say about pKi for "CCc1cc(Nc2c(O)c(=O)c2=O)cc(-c2nn[nH]n2)c1" ?
8.56

So what does the record say about pKi for "O=c1c(O)c(Nc2cc(-c3ccc(OCc4ccccc4)nc3)cc(-c3nn[nH]n3)c2)c1=O" ?
10.22

So what does the record say about pKi for "COCCNC(=O)c1ccc(-c2cc(Nc3c(O)c(=O)c3=O)cc(-c3nn[nH]n3)c2)cc1" ?
8.56

So what does the record say about pKi for "COc1cccc(-c2cc(Nc3c(O)c(=O)c3=O)cc(-c3nn[nH]n3)c2)c1" ?
9.34

So what does the record say about pKi for "O=c1c(O)c(Nc2cc(-c3ccnnc3)cc(-c3nn[nH]n3)c2)c1=O" ?
9.13

So what does the record say about pKi for "NC(=O)c1ccc(CNC(=O)c2ccc(-c3cc(Nc4c(O)c(=O)c4=O)cc(-c4nn[nH]n4)c3)cc2)cc1" ?
8.79

So what does the record say about pKi for "O=c1c(O)c(Nc2cc(-c3nn[nH]n3)cc(Oc3ccccc3)n2)c1=O" ?
8.44

So what does the record say about pKi for "COCCOc1ccc(CNC(=O)c2ccc(-c3cc(Nc4c(O)c(=O)c4=O)cc(-c4nn[nH]n4)c3)cc2)cc1" ?
8.83

So what does the record say about pKi for "O=c1c(O)c(Nc2cc(-c3ccc4cn(CCOc5ccc(C(F)(F)F)cc5)nc4c3)cc(-c3nnn[nH]3)c2)c1=O" ?
9.34

So what does the record say about pKi for "O=c1c(O)c(Nc2cc(-c3nn[nH]n3)cc(C3CCCCC3)c2)c1=O" ?
7.90

So what does the record say about pKi for "O=c1c(O)c(Nc2ccc(F)c(-c3nn[nH]n3)c2)c1=O" ?
9.00

So what does the record say about pKi for "O=c1c(O)c(Nc2cc(-c3ccc4[nH]ncc4c3)cc(-c3nn[nH]n3)c2)c1=O" ?
9.43

So what does the record say about pKi for "O=C(NCc1ccccc1)c1cccc(-c2cc(Nc3c(O)c(=O)c3=O)cc(-c3nn[nH]n3)c2)c1" ?
8.74

====

biological target: GPR35 (Homo sapiens (Human)); assay: Label-free DMR functional assay in HT-29 cells; type: cell-based; settings: HT-29 cell line endogenously expressing human GPR35; DMR normalised to Lodoxamide
measurement_type: EC50 (nM)
The figure you give is taken to be in nM; do not add the unit.

API: value(readout= EC50, system= GPR35 (Homo sapiens (Human)), query= O=c1c(O)c(Nc2cc(-c3ccc(OCc4ccc(C(F)(F)F)cc4)nc3)cc(-c3nn[nH]n3)c2)c1=O [Example 20] )
7.68

API: value(readout= EC50, system= GPR35 (Homo sapiens (Human)), query= O=c1c(O)c(Nc2cc(-c3nn[nH]n3)cc(C3CCCCC3)c2)c1=O [Example 28] )
6.65

API: value(readout= EC50, system= GPR35 (Homo sapiens (Human)), query= O=c1c(O)c(Nc2cc(-c3ccc(OCCOc4cc(C(F)(F)F)cc(C(F)(F)F)c4)nc3)cc(-c3nn[nH]n3)c2)c1=O [Example 26] )
1.04
